Each record here notes measured ratio IC50 hV2/hV1a.
# target.entity: human V1a receptor (Homo sapiens, UniProt P37288)
# Construct: expressed in transfected cells; host or cells: CHO K1 (ATCC), also stably transfected with a modified aequorin
# Sequence (P37288 whole entry): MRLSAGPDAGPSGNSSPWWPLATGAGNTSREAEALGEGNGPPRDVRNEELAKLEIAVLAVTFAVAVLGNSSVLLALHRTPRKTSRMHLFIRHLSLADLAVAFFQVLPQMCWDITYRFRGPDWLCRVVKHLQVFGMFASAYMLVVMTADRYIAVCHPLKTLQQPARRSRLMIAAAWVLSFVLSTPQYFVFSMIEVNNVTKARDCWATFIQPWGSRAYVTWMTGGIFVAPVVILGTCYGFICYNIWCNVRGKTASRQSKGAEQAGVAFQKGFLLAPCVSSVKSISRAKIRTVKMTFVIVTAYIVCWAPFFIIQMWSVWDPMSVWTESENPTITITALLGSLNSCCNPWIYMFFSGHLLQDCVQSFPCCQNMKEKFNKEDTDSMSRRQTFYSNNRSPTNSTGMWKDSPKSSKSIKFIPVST
# protocol.notes: Cellular in vitro assay for vasopressin receptor activity, V1a cell line (aequorin luminescence)
# Assay type: cell-based
# details: ratio of the IC50 on human V2 to the IC50 on human V1a
Answer using only a numeral; do not append any unit.

Solved entries:
Incoming: Entry CC(F)c1nc(Cn2nc(-c3ccc(Cl)cc3)n(C[C@H](O)C(F)(F)F)c2=O)nn1-c1ncccc1Cl (mixture of isomers) [Example 19] has what ratio IC50 hV2/hV1a?
Outgoing: 5.2

Incoming: Entry CC(F)c1nc(Cn2nc(-c3ccc(Cl)cc3)n(C[C@H](O)C(F)(F)F)c2=O)nn1-c1cnccc1C(F)(F)F (single isomer, unassigned) [Example 9] has what ratio IC50 hV2/hV1a?
Outgoing: 7.1

Incoming: Entry O=c1n(Cc2nc(C(F)F)n(-c3cccc(F)c3)n2)nc(-c2ccc(Cl)cc2)n1C[C@H](O)C(F)(F)F [Example 52] has what ratio IC50 hV2/hV1a?
Outgoing: 0.5

Incoming: Entry CC(F)(F)c1nc(Cn2nc(-c3ccc(Cl)cc3)n(C[C@H](O)C(F)(F)F)c2=O)nn1-c1ccccc1OC(F)(F)F [Example 61] has what ratio IC50 hV2/hV1a?
Outgoing: 10.7

Incoming: Entry CC(F)c1nc(Cn2nc(-c3ccc(Cl)cc3)n(C[C@H](O)C(F)(F)F)c2=O)nn1-c1ccccc1[N+](=O)[O-] (mixture of isomers) [Example 37] has what ratio IC50 hV2/hV1a?
Outgoing: 3.0

Incoming: Entry CCOc1ccccc1-n1nc(Cn2nc(-c3ccc(Cl)cc3)n(C[C@H](O)C(F)(F)F)c2=O)nc1C(C)F (mixture of isomers) [Example 42] has what ratio IC50 hV2/hV1a?
Outgoing: 2.6

Incoming: Entry CCOc1ccccc1-n1nc(Cn2nc(-c3ccc(Cl)cc3)n(C[C@H](O)C(F)(F)F)c2=O)nc1C(C)(F)F [Example 67] has what ratio IC50 hV2/hV1a?
Outgoing: 4.4

Incoming: Entry CC(F)c1nc(Cn2nc(-c3ccc(Cl)cc3)n(C[C@H](O)C(F)(F)F)c2=O)nn1-c1ccccc1C(F)(F)F (single isomer, unassigned) [Example 23] has what ratio IC50 hV2/hV1a?
Outgoing: 8.8

Incoming: Entry CC(C)c1ccccc1-n1nc(Cn2nc(-c3ccc(Cl)cc3)n(C[C@H](O)C(F)(F)F)c2=O)nc1C(C)F (mixture of isomers) [Example 47] has what ratio IC50 hV2/hV1a?
Outgoing: 1.2

Incoming: Entry CC(F)c1nc(Cn2nc(-c3ccc(Cl)cc3)n(C[C@H](O)C(F)(F)F)c2=O)nn1-c1cnccc1Cl (single isomer, unassigned) [Example 5] has what ratio IC50 hV2/hV1a?
Outgoing: 10.8

Next:
Incoming: Entry CC(F)(F)c1nc(Cn2nc(-c3ccc(Cl)cc3)n(C[C@H](O)C(F)(F)F)c2=O)nn1-c1ncccc1Cl [Example 58] has what ratio IC50 hV2/hV1a?
Outgoing: 3.4

Incoming: Entry CCc1cccc(C)c1-n1nc(Cn2nc(-c3ccc(Cl)cc3)n(C[C@H](O)C(F)(F)F)c2=O)nc1C(C)F (mixture of isomers) [Example 48] has what ratio IC50 hV2/hV1a?
Outgoing: 0.2
